meta.source: ChEMBL document CHEMBL1201862

Quick reference: GI50 of the listed items.
# Tested on: LOX IMVI
# experiment_description: NCI tumour cell line growth inhibition, 48 h
Activity calls are given as the source filed them. Cut-off read from the data, not from the text of the source: active = GI50 up to about 1.1 µM and inactive = higher.
property_label: GI50

>>> assay_value("C/C(=N/NC(=O)C(N)=O)C(CC(C(=O)Nc1ccccc1C)/C(C)=N\\NC(=O)C(N)=O)C(=O)Nc1ccccc1C (stereo unspecified)")
"> 100 µM (inactive)"
>>> assay_value("COC(=O)C(Cc1ccccc1)NP(=O)(O)OCC1OC(n2cc(Br)c(=O)[nH]c2=O)CC1O (stereo unspecified)")
"> 100 µM (inactive)"
>>> assay_value("O=S(=O)(O)c1ccc2c(/N=N/c3c(O)ccc4ccccc34)cccc2c1")
"> 100 µM (inactive)"
>>> assay_value("CCOC(=O)/C(C#N)=C/c1ccnc2ccccc12")
"15.6 µM (inactive)"
>>> assay_value("COc1ccc(/N=C/c2ccc(N(CCC#N)S(=O)(=O)c3ccccc3)cc2)cc1")
"> 100 µM (inactive)"
>>> assay_value("CO/C=C/C=C(\\C#N)C(=O)OC")
"> 100 µM (inactive)"
>>> assay_value("CC1(C)N=[N+]([O-])C1(C)C")
"> 100 µM (inactive)"
>>> assay_value("CCOC(=O)NC(=O)c1cn(CCSCCOC(=O)NCCCCCCNC(=O)OCCSCCn2cc(C(=O)NC(=O)OCC)c(=O)[nH]c2=O)c(=O)[nH]c1=O")
"> 100 µM (inactive)"
>>> assay_value("CCCCCCCCCCCCCCCC(=O)ON1C(=S)NC(C)(c2ccccc2)C1=S (stereo unspecified)")
"45.2 µM (inactive)"
>>> assay_value("C=C(Br)C[N+]12CN3CN(CN(C3)C1)C2")
"> 100 µM (inactive)"
>>> assay_value("COc1ccccc1C(O)[C@@H]1C[C@@H]2[C@H]3CC[C@@](C)([C@@H]2O1)C3(C)C (stereo partly specified)")
"18.4 µM (inactive)"
>>> assay_value("COC(=O)C12C34C=CC5(CCC6(C=CC1(CC3)O6)C52C(=O)OC)O4 (stereo unspecified)")
"> 100 µM (inactive)"
>>> assay_value("COc1ccc(NC(=O)/C(Cc2nc3ccccc3nc2O)=N\\O)c(OC)c1")
"> 100 µM (inactive)"
>>> assay_value("CCCCCCCCCCCCCC(=O)OCC1OC(n2cc(F)c(=O)[nH]c2=O)C(N)C(OC(=O)CCCCCCCCCCCCC)C1O (stereo unspecified)")
"> 100 µM (inactive)"
>>> assay_value("CC1(C)OC(=O)C(=Cc2ccc(O)cc2)C(=O)O1")
"> 100 µM (inactive)"
>>> assay_value("COc1cc2c(c(C)c1O)[C@H]1COc3ccccc3[C@H]1O2")
"3.65 µM (inactive)"
